readout kind: melting point

Some solved cases for reference:
• C=CCOCc1cccc(Cn2nnc3c(-c4ccc(C)o4)nc(N)nc32)n1 = 149 to 149.3 °C
• Cc1ccc(-c2nc(N)nc3c2nnn3Cc2cccc(N)c2C)o1 = 278.4 to 279.9 °C

Req: Suppose we examine the compound NCc1ccc(Cn2nnc3c(-c4ccco4)nc(N)nc32)cc1 ; what melting point value has been reported?
Resp: > 300 °C (dec.)

Req: Suppose we examine the compound Cc1nc(-c2nc(N)nc3c2nnn3Cc2cccc(N)c2)sc1C ; what melting point value has been reported?
Resp: 254.3 to 254.5 °C

Req: Suppose we examine the compound Nc1nc(-c2ccco2)c2nnn(Cc3ccc(Cl)c(N)c3)c2n1 ; what melting point value has been reported?
Resp: 256.7 to 257.1 °C

Req: Suppose we examine the compound Nc1cccc(Cn2nnc3c(-c4ccn[nH]4)nc(N)nc32)c1 ; what melting point value has been reported?
Resp: 279.3 to 281.3 °C

Req: Suppose we examine the compound COCc1cccc(Cn2nnc3c(-c4ccc(C)o4)nc(N)nc32)n1 ; what melting point value has been reported?
Resp: 152 to 153.5 °C

Req: Suppose we examine the compound Nc1cccc(Cn2nnc3c(-c4cncs4)nc(N)nc32)c1 ; what melting point value has been reported?
Resp: 228.2 to 228.3 °C

Req: Suppose we examine the compound CC(C)(C)OC(=O)Nc1ccc(Cn2nnc3c(-c4ccco4)nc(N)nc32)cc1F ; what melting point value has been reported?
Resp: 167 to 167.3 °C

----------
Measured pKi (human adenosine A2A receptors (Homo sapiens))
pKi is defined as minus the log10 of a concentration measured in mol/L.

Some solved cases for reference:
* Nc1nc(-c2ccco2)c2nnn(Cc3ccc(Cl)cc3N)c2n1 [Example 120] | 9.00
* Nc1nc(-c2ccco2)c2nnn(Cc3cc(I)ccc3F)c2n1 [Example 169] | 8.70
* Nc1nc(-c2ccco2)c2nnn(Cc3cccc4cccnc34)c2n1 [Example 107] | 8.70

Turning now to a further record.
Req: Suppose we examine the compound Nc1nc(-c2ccco2)c2nnn(Cc3ccc(Cl)s3)c2n1 [Example 8] ; what pKi value has been reported?
Resp: 8.52

----------
// values below are reported melting point
Where a name gives a salt, the structure may show the parent alone.

Some solved cases for reference:
* Nc1nc(-c2ccco2)c2nnn(Cc3ccc4c(c3)OCO4)c2n1 | > 250 °C (dec.)
* Cc1cc(Cn2nnc3c(-c4ccco4)nc(N)nc32)cc(C)c1[N+](=O)[O-] | 228.4 to 228.5 °C

Req: Suppose we examine the compound Nc1nc(-c2ccco2)c2nnn(CCc3cccs3)c2n1 ; what melting point value has been reported?
Resp: 178.4 to 179 °C

Req: Suppose we examine the compound COc1ccc(Cn2nnc3c(-c4ccco4)nc(N)nc32)cc1OC (as salt: trifluoroacetate) ; what melting point value has been reported?
Resp: 227.5 to 228.5 °C

Req: Suppose we examine the compound CC(C)OCc1cccc(Cn2nnc3c(-c4ccco4)nc(N)nc32)n1 ; what melting point value has been reported?
Resp: 134.5 to 134.6 °C

Req: Suppose we examine the compound Nc1nc(-c2ccco2)c2nnn(Cc3ccc4nonc4c3)c2n1 ; what melting point value has been reported?
Resp: 244.1 to 244.6 °C

Req: Suppose we examine the compound Nc1cccc(Cn2nnc3c(-c4nccs4)nc(N)nc32)c1 ; what melting point value has been reported?
Resp: 252.8 to 253.3 °C

Req: Suppose we examine the compound Nc1cccc(Cn2nnc3c(-c4ccc[nH]4)nc(N)nc32)c1 ; what melting point value has been reported?
Resp: 186.1 to 189.1 °C

Req: Suppose we examine the compound C=CCOCc1cccc(Cn2nnc3c(-c4ccco4)nc(N(CC=C)CC=C)nc32)n1 ; what melting point value has been reported?
Resp: 92.3 to 92.7 °C

----------
// values below are reported melting point

Some solved cases for reference:
- Cc1cc(Cn2nnc3c(-c4ccco4)nc(N)nc32)ccc1[N+](=O)[O-]: 237.8 to 238 °C
- NCc1ccccc1Cn1nnc2c(-c3ccco3)nc(N)nc21: > 250 °C (dec.)
- CC(C)(C)OC(=O)NCc1ccccc1Cn1nnc2c(-c3ccco3)nc(N)nc21: 204.2 to 204.4 °C
- CC(C)(C)OC(=O)n1cc(Cn2nnc3c(-c4ccco4)nc(N)nc32)c2ccccc21: 143.6 to 144.5 °C
- Cc1cccc(C(=O)C(C)n2nnc3c(-c4ccco4)nc(N)nc32)n1 (stereo not shown): 290.2 to 290.3 °C
- Cc1cnccc1Cn1nnc2c(-c3ccco3)nc(N)nc21: 229.6 to 230.3 °C

Req: Suppose we examine the molecule Nc1nc(-c2ccco2)c2nnn(Cc3cccc(NCc4ccccn4)c3)c2n1 ; what melting point value has been reported?
Resp: 184.5 to 184.6 °C

Req: Suppose we examine the molecule CCCc1cccc(Cn2nnc3c(-c4ccco4)nc(N)nc32)n1 ; what melting point value has been reported?
Resp: 178.3 to 178.5 °C

Req: Suppose we examine the molecule CN(C)Cc1cccc(Cn2nnc3c(-c4ccco4)nc(N)nc32)n1 ; what melting point value has been reported?
Resp: 219.7 to 222.3 °C

Req: Suppose we examine the molecule CC(C)c1cc(Cn2nnc3c(-c4ccco4)nc(N)nc32)nc(C(C)C)c1 ; what melting point value has been reported?
Resp: 226.5 to 227.9 °C

Req: Suppose we examine the molecule C=CCOCc1cccc(Cn2nnc3c(-c4ccco4)nc(N)nc32)n1 ; what melting point value has been reported?
Resp: 155.6 to 157.1 °C

Req: Suppose we examine the molecule CCOc1cccc(Cn2nnc3c(-c4ccco4)nc(N)nc32)n1 ; what melting point value has been reported?
Resp: 181.8 to 182.1 °C

Req: Suppose we examine the molecule Cc1ccc(-c2nc(N)nc3c2nnn3Cc2cccc(N)c2)o1 ; what melting point value has been reported?
Resp: 231.7 to 234 °C

Req: Suppose we examine the molecule CC(=O)Nc1cccc(Cn2nnc3c(-c4ccco4)nc(N)nc32)c1 ; what melting point value has been reported?
Resp: 277.4 to 277.9 °C

Req: Suppose we examine the molecule Nc1nc(-c2ccco2)c2nnn(Cc3csc(-c4ccccc4)n3)c2n1 ; what melting point value has been reported?
Resp: 215 to 215.3 °C

Req: Suppose we examine the molecule Nc1nc(-c2ccco2)c2nnn(Cc3cc4ccccc4[nH]3)c2n1 ; what melting point value has been reported?
Resp: 289.1 to 289.3 °C

Req: Suppose we examine the molecule Nc1nc(-c2ccco2)c2nnn(Cc3c(F)cccc3F)c2n1 ; what melting point value has been reported?
Resp: 213.8 to 213.9 °C

----------
// values below are reported melting point

* Cc1ccc(-c2nc(N)nc3c2nnn3Cc2cccc(CNC(=O)OC(C)(C)C)c2)o1 [Example 73] | 178.7 to 179.3 °C

Req: Suppose we examine the molecule Nc1nc(-c2ccco2)c2nnn(Cc3cc(F)cc(F)c3F)c2n1 [Example 168] ; what melting point value has been reported?
Resp: 204 to 204.2 °C

Req: Suppose we examine the molecule Cc1cccc(Cn2nnc3c(-c4ccc(C)o4)nc(N)nc32)n1 [Example 59] ; what melting point value has been reported?
Resp: 187.9 to 188.7 °C

Req: Suppose we examine the molecule COc1ccc(C(=O)Cn2nnc3c(-c4ccco4)nc(N)nc32)cc1 [Example 229] ; what melting point value has been reported?
Resp: 258.2 to 258.4 °C

Req: Suppose we examine the molecule Cc1cc(Cn2nnc3c(-c4ccco4)nc(N)nc32)cc(C)c1N [Example 262] ; what melting point value has been reported?
Resp: 250.1 to 261.3 °C

Req: Suppose we examine the molecule C[Si](C)(C)CCOCOc1cc([N+](=O)[O-])ccc1Cn1nnc2c(-c3ccco3)nc(N)nc21 ; what melting point value has been reported?
Resp: 136.5 to 137.6 °C

Req: Suppose we examine the molecule N#Cc1ccnc(Cn2nnc3c(-c4ccco4)nc(N)nc32)c1 [Example 105] ; what melting point value has been reported?
Resp: 263.2 to 263.5 °C

Req: Suppose we examine the molecule CC(C)(C)OC(=O)NCc1ccc(Cn2nnc3c(-c4ccco4)nc(N)nc32)cc1 [Example 140] ; what melting point value has been reported?
Resp: 184 to 185.2 °C

Req: Suppose we examine the molecule Cc1ccc(-c2nc(N)nc3c2nnn3Cc2cccs2)o1 [Example 61] ; what melting point value has been reported?
Resp: 193.8 to 194.1 °C

----------
// values below are reported melting point

* Nc1nc(-c2ccco2)c2nnn(Cc3cccc4[nH]ccc34)c2n1 | 192.3 to 193.5 °C
* COc1ccc(F)c(Cn2nnc3c(-c4ccco4)nc(N)nc32)c1 | 182.9 to 183.1 °C
* CCc1cccc(Cn2nnc3c(-c4ccco4)nc(N)nc32)n1 | 208.6 to 208.8 °C
* Nc1ccc(F)c(Cn2nnc3c(-c4ccco4)nc(N)nc32)c1 | 308.2 to 308.3 °C
* Cc1ccc(-c2nc(N)nc3c2nnn3Cc2cccc(-c3ccccc3)n2)o1 | 205 to 205.3 °C

Req: Suppose we examine the compound Nc1nc(-c2ccco2)c2nnn(CC(=O)Nc3ccccc3)c2n1 ; what melting point value has been reported?
Resp: 292.2 to 292.3 °C

Req: Suppose we examine the compound Cc1ccc(-c2nc(N)nc3c2nnn3Cc2cccc([N+](=O)[O-])c2C)o1 ; what melting point value has been reported?
Resp: 255.6 to 255.7 °C

Req: Suppose we examine the compound Cc1ccc(-c2nc(N)nc3c2nnn3Cc2ccc(N)c(F)c2)o1 ; what melting point value has been reported?
Resp: > 200 °C (dec.)

Req: Suppose we examine the compound CC(C)(C)OC(=O)n1ccc2cc(Cn3nnc4c(-c5ccco5)nc(N)nc43)ccc21 ; what melting point value has been reported?
Resp: 189 to 189.1 °C
